# Test system: BDF1 mice, P388 leukemia ip, median survival T/C
# ASSAY INFO: NCI In Vivo Anticancer Drug Screen. Data for tumor model P388 Leukemia (intraperitoneal) in B6D2F1 (BDF1) mice
# DETAILS: endpoint: median survival time; dose: 3.12 mg/kg/injection; schedule: Q01DX009 (ip); vehicle: saline; higher = longer survival
Toxic doses and inconclusive results are not listed.
Quick list: T/C per entry.

>  <COMPOUND>
NC(=O)c1ccc[n+](Cc2c(Cl)cccc2Cl)c1

>  <T/C>
185 % of control

$$$$
>  <COMPOUND>
CC1C[N-]CC(C)C1.CC1C[N-]CC(C)C1.[Cl][Pt+2]([Cl])([Cl])[Cl] (stereo not given)

>  <T/C>
114 % of control

$$$$
>  <COMPOUND>
CCCCC(=O)N/N=C(\C)[C@]1(O)Cc2c(O)c3c(c(O)c2[C@@H](OC2CC(N)C(O)C(C)O2)C1)C(=O)c1c(OC)cccc1C3=O (stereo not given in full)

>  <T/C>
122 % of control

$$$$
>  <COMPOUND>
CS(C)=O.CS(C)=O.CS(C)=O.[Cl][Rh]([Cl])[Cl]

>  <T/C>
114 % of control

$$$$
>  <COMPOUND>
CCOC(=O)C(C(C)=O)C(c1ccc([N+](=O)[O-])cc1)C(C(C)=O)C(=O)OCC (stereo not given)

>  <T/C>
108 % of control

$$$$

Data provenance: PubChem BioAssay AID328
